Data credit: patent US11976083B2

Measured pIC50 accompanies every entry in the list below.
target: human PAD4 (Homo sapiens, UniProt Q9UM07); construct: human PAD4 (NM_012387), A2-P663, was PCR amplified; His-SUMO (N, cleaved yes); assay: In vitro PAD4 BAEE biochemical assay; details: BAEE substrate 3 mM, 5 nM PAD4, 2 mM calcium chloride; geometric mean of multiple experiments
Sequence (Q9UM07 2-663): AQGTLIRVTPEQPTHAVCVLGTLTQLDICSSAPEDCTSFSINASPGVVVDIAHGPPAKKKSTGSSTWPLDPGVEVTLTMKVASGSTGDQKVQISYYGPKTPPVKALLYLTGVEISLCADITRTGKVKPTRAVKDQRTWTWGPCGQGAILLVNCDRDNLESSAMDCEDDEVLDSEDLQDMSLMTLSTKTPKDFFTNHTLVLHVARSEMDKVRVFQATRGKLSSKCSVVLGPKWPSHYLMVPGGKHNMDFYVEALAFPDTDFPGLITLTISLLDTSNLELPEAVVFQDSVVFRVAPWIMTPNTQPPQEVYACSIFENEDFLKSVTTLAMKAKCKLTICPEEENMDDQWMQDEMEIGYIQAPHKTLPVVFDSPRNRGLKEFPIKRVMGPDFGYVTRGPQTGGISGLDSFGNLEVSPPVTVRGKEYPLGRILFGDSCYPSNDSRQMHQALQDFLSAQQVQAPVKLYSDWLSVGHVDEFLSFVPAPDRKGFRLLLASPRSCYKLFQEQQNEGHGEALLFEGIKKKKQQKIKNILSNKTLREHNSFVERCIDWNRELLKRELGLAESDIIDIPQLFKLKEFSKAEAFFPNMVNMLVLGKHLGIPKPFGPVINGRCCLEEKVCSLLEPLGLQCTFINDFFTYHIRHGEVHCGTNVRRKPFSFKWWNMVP
pIC50: −log10 of the molar value.

COMPOUND	pIC50
C[C@H]1NC(=O)[C@H]2C[C@@H]2CC(F)(F)CCCn2c(-c3nc4cc(C(=O)N5C[C@H](N)[C@@H]6CC[C@H]5C6)cc(F)c4n3C3CC3)cc3ccc1nc32	7.41
C[C@H]1NC(=O)[C@]2(C)C[C@H]2CCCC(F)(F)Cn2c(-c3nc4cc(C(=O)N5[C@H]6CC[C@@H]5[C@H](N)C6)c(F)cc4n3C)cc3ccc1nc32	7.47
COc1cc(C(=O)N2[C@H]3CC[C@@H]2[C@H](N)C3)cc2nc(-c3cc4ccc5nc4n3C[C@@H]3C[C@H]3COCC(=O)N[C@@H]5C)c(C)n12	7.52
COc1cc(C(=O)N2CCC[C@@H](N)[C@H]2C)cc2nc(-c3cc4ccc5nc4n3CCCCCc3ccnc(C4CC4)c3C(=O)N[C@@H]5C)n(C)c12	7.29
COc1cc(C(=O)N2CCC[C@@H](N)C2)cc2nc(-c3cc4ccc5nc4n3CCCCCCCCOC5C)n(C)c12 (stereo partly shown)	6.47
COc1cc(C(=O)N2[C@H]3CC[C@@H]2[C@H](N)C3)cc2nc(-c3cc4ccc5cc4n3CCCCCCC3(CC3)C(=O)N[C@@H]5C)n(C)c12	7.49
COc1cc(C(=O)N2[C@H]3CC[C@@H]2[C@H](N)C3)cc2nc(-c3cc4ccc5cc4n3CCCCCCNC(=O)c3ncccc3-5)n(C)c12	6.91
COc1cc(C(=O)N2C[C@H]3CC[C@@H]2[C@@H]3N)cc2nc(-c3cc4ccc5nc4n3CCCCCC[C@@](C)(C(F)(F)F)C(=O)N[C@@H]5C)n(C)c12	6.76
COc1cccc2c1C(=O)N[C@H](C)c1ccc3cc(-c4nc5cc(C(=O)N6CC[C@@H](OC)[C@@H](N)C6)cc(OC)c5n4C)n(c3n1)CCCCC2	7.17
C[C@H]1NC(=O)C(C)(C)CCCCCCn2c(-c3nc4cc(C(=O)N[C@H]5CNCC[C@@H]5F)c(F)cc4n3CCOC(F)F)cc3ccc1nc32	6.89
COc1cc(C(=O)N2[C@H]3CC[C@@H]2[C@H](N)C3)cc2nc(-c3cc4ccc5nc4n3C[C@H]3C[C@@H]3COCCC(=O)N[C@@H]5C)c(C3CC3)n12	7.82
C[C@H]1NC(=O)[C@@H]2C[C@H]2CCCCCn2c(-c3nc4cc(C(=O)N[C@H]5CNCC[C@@H]5F)cc(C(F)(F)F)c4n3C)cc3ccc1nc32	6.33
C[C@@H]1[C@H](N)CCCN1C(=O)c1cc(Cl)c2c(c1)nc(-c1cc3ccc4nc3n1CC(F)(F)CCC[C@@H]1C[C@H]1C(=O)N[C@@H]4C)n2C1CC1	8.22
COc1cc(C(=O)N[C@H]2CNCC[C@@H]2F)cc2nc(-c3cc4ccc5nc4n3CCCCCCC(C)(C)C(=O)N[C@@H]5C)n(C)c12 [Example 75]	6.99
CO[C@@H]1CCN(C(=O)c2cnc3c(c2)nc(-c2cc4ccc5nc4n2CCCCC[C@@H]2C[C@H]2C(=O)N[C@@H]5C)n3C2CC2)C[C@@H]1N	6.93
COc1cc(C(=O)N2CCC[C@@H](N)C2)cc2nc(-c3cc4ccc5nc4n3C[C@H]3C[C@@H]3COCCC(=O)N[C@@H]5C)n(C)c12	7.34
C[C@H]1NC(=O)c2ccc(Cl)nc2CCCCCn2c(-c3nc4cc(C(=O)N5C[C@H]6CC[C@@H]5[C@@H]6N)cc(F)c4n3C3CC3)cc3ccc1nc32	7.77
CO[C@@H]1CCN(C(=O)c2cc(F)c3c(c2)nc(-c2cc4ccc5nc4n2CC(F)(F)/C=C/C[C@@H]2C[C@H]2C(=O)N[C@@H]5C)n3C)C[C@@H]1N	7.21
C[C@H]1NC(=O)[C@@H]2C[C@H]2CCCC(F)(F)Cn2c(-c3nc4cc(C(=O)N5C[C@H](N)[C@@H]6CC[C@H]5C6)cc(F)c4n3[C@H]3C[C@@H]3F)cc3ccc1nc32	7.33
C[C@H]1NC(=O)C(C)(C)CCCCCCn2c(-c3nc4cc(C(=O)N[C@H]5CNCC[C@@H]5F)c(F)cc4n3CC(F)F)cc3ccc1nc32	6.91
Cc1cc2c(cc1C(=O)N[C@H]1CNCC[C@@H]1F)nc(-c1cc3ccc4nc3n1CCCCCCC(C)(C)C(=O)N[C@@H]4C)n2C	7.06
C[C@H]1NC(=O)[C@@H]2C[C@H]2CCCCCn2c(-c3nc4cc(C(=O)N5C[C@H](N)[C@@H]6CC[C@H]5C6)ccc4n3C3CC3)cc3ccc1nc32	7.66
